# Run description: Drug metabolism in mouse liver microsomes assessed as drug recovery pre-incubated at 37 degC for 5 mins measured after 30 mins in absence of NADPH by LC/MS/MS method
# Type: ADME, microsome
# Measurement setup: read-out: Drug recovery
The compounds listed here are annotated with their remaining at 0.5 h.
Record the value in %, omitting the unit from your answer.

Examples with their reported remaining at 0.5 h follow.
# Input smiles, Unit spec, Numeric readout
records = [
    ("CCc1ccc(CC[C@H]([C@H](C)O)n2cnc3c(N)ncnc32)s1", "%", 90),
    ("C[C@H](O)[C@@H](CCc1ccc(C(F)(F)F)cc1)n1cnc2c(N)ncnc21", "%", 94),
    ("C[C@H](O)[C@@H](CSc1cccc(C(F)(F)F)c1)n1cnc2c(N)ncnc21", "%", 100),
    ("COC(=O)c1cccc(CC[C@H]([C@H](C)O)n2cnc3c(N)ncnc32)c1", "%", 100),
    ("C[C@H](O)[C@@H](CCc1cccc(-c2nccs2)c1)n1cnc2c(N)ncnc21", "%", 92),
]

Returns the measured remaining at 0.5 h for the input compound. Input: C[C@H](O)[C@@H](CCc1cccc(-c2ccccn2)c1)n1cnc2c(N)ncnc21 100

Give its remaining at 0.5 h value. Item: C[C@H](O)[C@@H](CCc1cccc(C(F)(F)F)c1)n1cnc(C(N)=O)c1 93

Fill blank: measured remaining at 0.5 h of the compound C[C@H](O)[C@@H](CCc1cccc(C(F)(F)F)c1)n1cnc2c(N)ncnc21 is ____. 89

Fill in: remaining at 0.5 h of C[C@H](O)[C@@H](CCC1CCCCC1)n1cnc2c(N)ncnc21 is ___ 92

Requested field: remaining at 0.5 h. Item: C[C@H](O)[C@@H](CCc1cccc(-c2cnccn2)c1)n1cnc2c(N)ncnc21 94

Reported remaining at 0.5 h for CCCCSC[C@H]([C@H](C)O)n1cnc2c(N)ncnc21 : what is it? 94

Data request, read-out remaining at 0.5 h, for CNC(=O)c1cccc(CC[C@H]([C@H](C)O)n2cnc3c(N)ncnc32)c1 96
